# MEASURED_TARGET: Human GLP-1R (human) (UniProt P43220)
# Sequence (P43220 24-463): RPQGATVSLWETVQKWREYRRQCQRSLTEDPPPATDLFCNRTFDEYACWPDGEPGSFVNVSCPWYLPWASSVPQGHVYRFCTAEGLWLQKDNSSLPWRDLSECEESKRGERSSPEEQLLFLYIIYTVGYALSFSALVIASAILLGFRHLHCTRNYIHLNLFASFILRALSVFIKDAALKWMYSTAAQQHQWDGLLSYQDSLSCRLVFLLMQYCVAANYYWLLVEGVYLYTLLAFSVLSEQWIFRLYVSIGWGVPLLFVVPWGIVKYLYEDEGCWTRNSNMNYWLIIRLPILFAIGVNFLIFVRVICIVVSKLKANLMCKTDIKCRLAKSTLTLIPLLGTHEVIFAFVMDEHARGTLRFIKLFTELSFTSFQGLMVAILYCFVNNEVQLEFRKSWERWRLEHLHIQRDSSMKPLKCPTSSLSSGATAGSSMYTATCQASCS
Ends that are not written are not given here. fatty chain = not defined here
MEASUREMENT_LABEL: EC50 (nM), Human GLP-1R activation, in vitro cell assay
One number for each entry, in nM.

BINDER	VAL
FFYSSPSAYK(fatty chain)ETGGPSSGAPPPS (reading uncertain; also: fatty chain not given here) [PEP18]	0.391
FFYSSPSAK(fatty chain)LETGGPSSGAPPPS (reading uncertain; also: fatty chain not given here) [PEP17]	0.412
FFYSSPSAYLEK(fatty chain)GGPSSGAPPPS (reading uncertain; also: fatty chain not given here) [PEP20]	0.062
FFYSSPSAYLK(fatty chain)TGGPSSGAPPPS (reading uncertain; also: fatty chain not given here) [PEP19]	0.152
FFYSSPSAYKETGGPSSGAPPPS [PEP14]	0.051

List the reported EC50 (nM), Human GLP-1R activation, in vitro cell assay of each binder below.
1. FFYSSPSAKLETGGPSSGAPPPS [PEP13]
2. FFYSSPSAYLEKGGPSSGAPPPS [PEP16]
3. FFYSSPSAYLKTGGPSSGAPPPS [PEP15]

A:
1. 0.064
2. 0.111
3. 0.451

Data provenance: paper PMC6412877
